tested.on: Factor XIa (Homo sapiens (Human))
Sequence (P03951 388-625): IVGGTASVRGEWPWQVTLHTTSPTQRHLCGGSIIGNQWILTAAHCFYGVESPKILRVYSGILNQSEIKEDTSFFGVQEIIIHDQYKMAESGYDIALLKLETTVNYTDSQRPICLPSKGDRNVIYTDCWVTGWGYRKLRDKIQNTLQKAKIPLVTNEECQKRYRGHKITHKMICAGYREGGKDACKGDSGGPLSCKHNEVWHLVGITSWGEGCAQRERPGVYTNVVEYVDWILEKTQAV
Sequence (P03951 19-387 partner): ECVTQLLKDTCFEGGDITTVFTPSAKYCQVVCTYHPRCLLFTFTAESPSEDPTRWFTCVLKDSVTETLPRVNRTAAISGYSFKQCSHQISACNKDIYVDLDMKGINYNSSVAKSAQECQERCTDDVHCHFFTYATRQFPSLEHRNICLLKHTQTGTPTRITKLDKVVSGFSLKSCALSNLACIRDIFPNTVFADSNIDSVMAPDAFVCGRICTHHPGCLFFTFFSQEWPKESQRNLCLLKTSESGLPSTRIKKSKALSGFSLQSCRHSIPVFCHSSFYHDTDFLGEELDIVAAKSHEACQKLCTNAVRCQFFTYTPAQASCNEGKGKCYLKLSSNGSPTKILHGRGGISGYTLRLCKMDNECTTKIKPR
protocol.details: Factor XIa inhibition assay (FLINT) utilizing a fluorophore-quencher pair peptide substrate
Format: biochemical
applied.conditions: 30 min preincubation, kinetic reads over 30 min, 5Fam-KLTRAETV-K5Tamra substrate 15 μM; read-out: FXIa Kin Inh IC50
// values below are reported pIC50
Would you please state pIC50, meaning minus log10 of the concentration in mol/L, as a bare number?

Examples with answers:
compound: Cn1cc(NC(=O)C2CC2)c(-c2c[nH]c([C@@H]3CC[C@H]4CC(c5c(-n6cnnn6)ccc(Cl)c5F)=CC(=O)N43)n2)n1
pIC50: 7.61
--
compound: O=C1C=C(c2c(-n3cnnn3)ccc(Cl)c2F)C[C@H]2CC[C@@H](c3ncc(-c4ccnc(OC[C@@H]5COCCO5)c4F)[nH]3)N12 (single isomer, unassigned)
pIC50: 8.70

Kindly review the next compound as well.
query: Fill in: pIC50 of Nc1ccc(-c2cnc([C@@H]3CC[C@@H]4CC(c5cc(Cl)ccc5-n5cnnn5)CC(=O)N43)[nH]2)c(F)n1 (stereo partly drawn) is ___
result: 8.14

---

tested.on: UniProt P03951
protocol.details: Factor XIa inhibition assay (FLINT) utilizing a fluorophore-quencher pair peptide substrate
Format: biochemical
applied.conditions: 30 min preincubation, kinetic reads over 30 min, 5Fam-KLTRAETV-K5Tamra substrate 15 μM; read-out: FXIa Kin Inh IC50
Quick rule for you: IC50 under 5 nM gets met, anything else gets not met.

Use these answered entries as a reference point.
molecule: O=C1C=C(c2c(-n3cc(C(F)(F)F)nn3)ccc(Cl)c2F)CC2CC[C@@H](c3ncc(-c4c[nH]c5ncncc45)[nH]3)N12 (stereo partly shown)
tested.on: UniProt P03951
group.label: met

molecule: O=C1C=C(c2c(-n3cnnn3)ccc(Cl)c2F)C[C@H]2CC[C@@H](c3ncc(-c4c[nH]nc4Cl)[nH]3)N12 (single isomer, unassigned)
tested.on: UniProt P03951
group.label: met

molecule: Cn1ncc(NC(=O)C2CC2)c1-c1c[nH]c([C@@H]2CC[C@H]3CC(c4c(-n5cnnn5)ccc(Cl)c4F)=CC(=O)N32)n1
tested.on: UniProt P03951
group.label: met

molecule: O=C(Nc1cnc(C(F)(F)F)cc1-c1cnc([C@@H]2CC[C@@H]3CC(c4c(-n5cnnn5)ccc(Cl)c4F)=CC(=O)N32)[nH]1)C1CC1
tested.on: UniProt P03951
group.label: met

molecule: Nc1ccc(-c2cnc([C@H]3CC[C@@H]4CC(c5cc(Cl)ccc5-n5cnnn5)=CC(=O)N43)[nH]2)c(F)n1 (single isomer, unassigned)
tested.on: UniProt P03951
group.label: met

query: Threshold test, IC50 < 5 nM: O=C1C=C(c2c(OC(F)F)ccc(Cl)c2F)C[C@H]2CC[C@@H](c3ncc(-c4ccnc(CO)c4F)[nH]3)N12
result: not met

query: Threshold test, IC50 < 5 nM: COC(=O)c1nccc(-c2cnc([C@@H]3CC[C@@H]4CC(c5c(-n6cc(Cl)nn6)ccc(Cl)c5F)=CC(=O)N43)[nH]2)c1F
result: not met

query: Threshold test, IC50 < 5 nM: O=C1C=C(c2c(-n3cnnn3)ccc(Cl)c2F)C[C@H]2CC[C@@H](c3ncc(-c4ccc5cc[nH]c5c4F)[nH]3)N12
result: met

query: Threshold test, IC50 < 5 nM: COc1ccc(-c2c[nH]c([C@@H]3CCC4CC(c5c(-n6cnnn6)ccc(Cl)c5F)=CC(=O)N43)n2)c(NC(=O)C2CC2)c1 (stereo partly shown)
result: met

query: Threshold test, IC50 < 5 nM: Nc1ccc(-c2c[nH]c([C@@H]3CCC4CC(c5c(-c6cnc[nH]6)ccc(Cl)c5F)=CC(=O)N43)n2)c(F)n1 (stereo partly shown)
result: not met

query: Threshold test, IC50 < 5 nM: Cn1ccnc1-c1c[nH]c([C@@H]2CCC3CC(c4c(-n5cnnn5)ccc(Cl)c4F)=CC(=O)N32)n1 (stereo partly shown)
result: not met

query: Threshold test, IC50 < 5 nM: O=C1C=C(c2c(-n3cnnn3)ccc(Cl)c2F)CC2CC[C@@H](c3nc(-c4ncc[nH]4)c[nH]3)N12 (stereo partly shown)
result: not met

---

tested.on: UniProt:P03951
protocol.details: Factor XIa inhibition assay (FLINT) utilizing a fluorophore-quencher pair peptide substrate
Type: biochemical
applied.conditions: 30 min preincubation, kinetic reads over 30 min, 5Fam-KLTRAETV-K5Tamra substrate 15 μM; read-out: FXIa Kin Inh IC50
// values below are reported IC50
Kindly provide the numeric value in nM only, without the unit symbol.

compound: O=C1C=C(c2c(-n3cc(C(F)(F)F)nn3)ccc(Cl)c2F)C[C@H]2CC[C@@H](c3ncc(-c4ccc(CO)nc4Cl)[nH]3)N12 [Example 223]
IC50 [nM]: 15.9
//
compound: CCOC(=O)Nc1ccncc1-c1c[nH]c([C@@H]2CCC3CC(c4c(-n5cnnn5)ccc(Cl)c4F)=CC(=O)N32)n1 (stereo partly drawn) [Example 251]
IC50 [nM]: 32.2

Kindly review the next compound as well.
query: Fill in: IC50 of O=C1C=C(c2c(-n3cnnn3)ccc(Cl)c2F)C[C@H]2CC[C@@H](c3ncc(-c4ccnc(-c5ncc[nH]5)c4F)[nH]3)N12 [Example 2] is ___
result: 1.9

---

tested.on: human plasma kallikrein (Homo sapiens (Human))
Sequence (P03952 391-638): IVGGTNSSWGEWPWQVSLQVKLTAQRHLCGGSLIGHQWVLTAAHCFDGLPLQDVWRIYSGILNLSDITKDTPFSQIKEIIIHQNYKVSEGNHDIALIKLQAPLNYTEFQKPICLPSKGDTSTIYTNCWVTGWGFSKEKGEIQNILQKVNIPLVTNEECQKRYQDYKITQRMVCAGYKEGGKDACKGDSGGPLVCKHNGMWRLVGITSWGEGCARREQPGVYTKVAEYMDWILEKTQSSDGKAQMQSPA
Sequence (P03952 20-390 partner): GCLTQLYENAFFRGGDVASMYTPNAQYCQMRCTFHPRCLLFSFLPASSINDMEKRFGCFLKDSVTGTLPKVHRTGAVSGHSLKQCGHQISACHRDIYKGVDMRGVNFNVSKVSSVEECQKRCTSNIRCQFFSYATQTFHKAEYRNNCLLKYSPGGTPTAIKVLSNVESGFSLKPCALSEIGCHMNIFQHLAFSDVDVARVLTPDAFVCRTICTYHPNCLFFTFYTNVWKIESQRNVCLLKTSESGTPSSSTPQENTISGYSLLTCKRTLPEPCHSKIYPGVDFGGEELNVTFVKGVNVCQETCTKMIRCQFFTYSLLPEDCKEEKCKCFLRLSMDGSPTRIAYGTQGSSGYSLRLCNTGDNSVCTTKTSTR
protocol.details: Kallikrein inhibition assay (FLINT) utilizing a quenched AMC peptide substrate
Format: biochemical
applied.conditions: 30 min preincubation, kinetic reads over 30 min, Z-Gly-Pro-Arg-AMC substrate 50 μM; read-out: Kallikrein Kin Inh IC50
Quick rule for you: IC50 under 40 nM gets rule met, anything else gets rule not met.

Use these answered entries as a reference point.
molecule: C[C@H](O)c1nccc(-c2[nH]c([C@@H]3CC[C@@H]4CC(c5cc(Cl)ccc5-n5cnnn5)=CC(=O)N43)nc2F)c1F (relative stereo)
group.label: rule met
--
molecule: Nc1ccc(-c2cnc([C@@H]3CC[C@@H]4CC(c5cc(Cl)ccc5-n5cnnn5)CC(=O)N43)[nH]2)c(F)n1 (stereo partly drawn)
group.label: rule not met
--
molecule: O=C1C=C(c2c(-n3cnnn3)ccc(Cl)c2F)CC2CC[C@@H](c3nc(F)c(-c4ccnc(N[C@H]5CCOC5)c4F)[nH]3)N12 (relative stereo)
group.label: rule met
--
molecule: COC(=O)c1nccc(-c2cnc([C@@H]3CC[C@@H]4CC(c5c(-n6cnnn6)ccc(Cl)c5F)=CC(=O)N43)[nH]2)c1F
group.label: rule met
--
molecule: [2H]c1cc(-c2cnc([C@@H]3CC[C@@H]4CC(c5c(-n6cnnn6)ccc(Cl)c5F)=CC(=O)N43)[nH]2)c(F)nc1N
group.label: rule met

Alright, here's another molecule for you.
query: Threshold test, IC50 < 40 nM: CNC(=O)c1ccccc1-c1cnc([C@@H]2CCC3CC(c4c(-n5cnnn5)ccc(Cl)c4F)=CC(=O)N32)[nH]1 (stereo partly drawn)
result: rule not met

---

tested.on: human plasma kallikrein (Homo sapiens (Human))
protocol.details: Kallikrein inhibition assay (FLINT) utilizing a quenched AMC peptide substrate
Assay type: biochemical
applied.conditions: 30 min preincubation, kinetic reads over 30 min, Z-Gly-Pro-Arg-AMC substrate 50 μM; read-out: Kallikrein Kin Inh IC50
assay.metric: pIC50
Would you please state pIC50, meaning minus log10 of the concentration in mol/L, as a bare number?

compound: C[C@@H](O)c1nccc(-c2[nH]c([C@@H]3CC[C@@H]4CC(c5cc(Cl)ccc5-n5cnnn5)=CC(=O)N43)nc2F)c1F (relative stereo) [Example 45]
reported.measurement: 7.38
--
compound: NC(=O)c1ccc(-c2cnc([C@@H]3CC[C@H]4CC(c5c(-n6cnnn6)ccc(Cl)c5F)=CC(=O)N43)[nH]2)c(Cl)n1 [Example 228]
reported.measurement: 6.79
--
compound: CS(=O)(=O)Nc1nccc(-c2cnc([C@@H]3CC[C@@H]4CC(c5c(-n6cnnn6)ccc(Cl)c5F)=CC(=O)N43)[nH]2)c1F [Example 367]
reported.measurement: 8.12
--
compound: O=C1C=C(c2c(-n3cnnn3)ccc(Cl)c2F)C[C@H]2CC[C@@H](c3nc(F)c(-c4ccnc(CO)c4F)[nH]3)N12 [Example 107]
reported.measurement: 8.19
--
compound: CCOC(=O)Nc1ccncc1-c1c[nH]c([C@@H]2CCC3CC(c4c(-n5cnnn5)ccc(Cl)c4F)=CC(=O)N32)n1 (stereo partly drawn) [Example 251]
reported.measurement: 6.65
--
compound: Nc1ccn(-c2nccc(-c3cnc([C@H]4CC[C@@H]5CC(c6c(-n7cnnn7)ccc(Cl)c6F)=CC(=O)N54)[nH]3)c2F)n1 (single isomer, unassigned) [Example 63]
reported.measurement: 8.21
--
compound: O=C1C=C(c2c(-n3cnnn3)ccc(Cl)c2F)C[C@H]2CC[C@@H](c3nc(-c4ncc(CO)s4)c[nH]3)N12 [Example 39]
reported.measurement: 6.86
--
compound: O=C1CCc2cc(-c3[nH]c([C@@H]4CC[C@@H]5CC(c6cc(Cl)ccc6-n6cc(C(F)(F)F)nn6)=CC(=O)N54)nc3F)ccc2N1 [Example 81]
reported.measurement: 8.74

query: Fill in: pIC50 of O=C1C=C(c2c(-n3cc(C(F)(F)F)nn3)ccc(Cl)c2F)CC2CC[C@@H](c3ncc(-c4c[nH]c5ncncc45)[nH]3)N12 (stereo partly drawn) [Example 365] is ___
result: 8.14
